- System: Vero E6 cells
- test.conditions: Vero E6; Example C (Table 4)
Structures can show the parent of a compound that is named as a salt. Residues, ends and D or L forms follow the SMILES beside them. *: point of attachment. Cbz = O=C(OCc1ccccc1)*; CH2F = FC*
measure.name: Min. Viability (%)
Numbers only; they are read as %.

Please review the entries below; each comes with its answer.
{"columns": ["compound", "unit.spec", "result.number"],
 "data": [
  ["CCOC(=O)[C@H]1O[C@@H]1C(=O)N[C@@H](CC(C)C)C(=O)NCCC(C)C [Aloxistatin]", "%", 93.02],
  ["CCC(CC)COC(=O)[C@H](C)N[P@](=O)(OC[C@H]1O[C@@](C#N)(c2ccc3c(N)ncnn23)[C@H](O)[C@@H]1O)Oc1ccccc1 [Remdesivir]", "%", 91.15],
  ["CCN(CC)CCCC(C)Nc1ccnc2cc(Cl)ccc12 (centres unmarked) [Chloroquine]", "%", 90.50],
  ["CC(C)C[C@H](NC(=O)OCc1ccccc1)C(=O)N[C@@H](CC(C)C)C(=O)N[C@@H](Cc1ccc(O)cc1)C(=O)CF [Calpain Inhibitor IV] (Cbz-Leu-Leu-Tyr-CH2F)", "%", 99.77]
]}

Let us examine a further case.
IN: I'm curious: which Min. Viability was measured for Nc1c(Br)cc(Br)cc1CN[C@H]1CC[C@H](O)CC1 [AMB, hydrochloride] tested on Vero E6 cells?
OUT: 0.55
